- Assay Overview: Tmax in mouse at 100 mg/kg, po by HPLC method
- Type: ADME, organism-based
- Test Parameters: in vivo
Consider the following compounds; for each one, report its Tmax.
One number for each entry, in min.

COc1cc(/C=C/c2ccc(O)cc2)cc(OC)c1
10
Oc1ccc(/C=C/c2cc(O)cc(O)c2)cc1
10
O=c1c(O)c(-c2ccc(O)c(O)c2)oc2cc(O)cc(O)c12
15
O=C(O[C@@H]1Cc2c(O)cc(O)cc2O[C@@H]1c1cc(O)c(O)c(O)c1)c1cc(O)c(O)c(O)c1 [EPIGALOCATECHIN GALLATE]
30

Then this compound:
Request: Find the measured Tmax of O=c1c(-c2ccc(O)cc2)coc2cc(O)cc(O)c12 and report it.
Result: 10

###

- System: T47D
- Assay Overview: Cytotoxicity against human T47D cells assessed as decrease in cell viability after 48 hrs by trypan blue exclusion and LDH release
Measured Endpoint: IC50 (µM)
Answers are plain numbers, in µM.

O=C(O[C@@H]1Cc2c(O)cc(O)cc2O[C@@H]1c1cc(O)c(O)c(O)c1)c1cc(O)c(O)c(O)c1 [EPIGALOCATECHIN GALLATE]
57

Could I get IC50 for every one of these entries?
1. COc1cc(/C=C/C(=O)CC(=O)/C=C/c2ccc(O)c(OC)c2)ccc1O
2. O=c1c(-c2ccc(O)cc2)coc2cc(O)cc(O)c12
3. Oc1ccc(/C=C/c2cc(O)cc(O)c2)cc1
4. COc1cc(/C=C/c2ccc(O)cc2)cc(OC)c1

Result:
19
48
25
35

Request: Find the measured IC50 of O=c1c(O)c(-c2ccc(O)c(O)c2)oc2cc(O)cc(O)c12 and report it.
Result: 11

###

- Test system: NCI-H460
- Assay Overview: Cytotoxicity against human NCI-H460 cells assessed as decrease in cell viability after 48 hrs by MTT assay
- Format: functional, cell-based
- Test Parameters: NCI-H460, 48 h
Threshold 20 µM. IC50 below it: yes. IC50 at it or above: no.

Oc1ccc(/C=C/c2cc(O)cc(O)c2)cc1
yes
O=c1c(-c2ccc(O)cc2)coc2cc(O)cc(O)c12
no
O=c1c(O)c(-c2ccc(O)c(O)c2)oc2cc(O)cc(O)c12
yes
O=C(O[C@@H]1Cc2c(O)cc(O)cc2O[C@@H]1c1cc(O)c(O)c(O)c1)c1cc(O)c(O)c(O)c1 [EPIGALOCATECHIN GALLATE]
yes
COc1cc(/C=C/c2ccc(O)cc2)cc(OC)c1
yes

Consider now this further compound.
Request: Does the reported IC50 of the following compound sit strictly below 20 µM? COc1cc(/C=C/C(=O)CC(=O)/C=C/c2ccc(O)c(OC)c2)ccc1O
Result: yes

###

- Assay Overview: Cmax in mouse at 100 mg/kg, po by HPLC method
- Type: ADME, organism-based
- Set-up: dose 100 mg/kg, route oral
- Test Parameters: in vivo
Measured Endpoint: Cmax (µM)
Give bare numbers, in µM.

Before answering, review these 4 worked examples.
O=c1c(O)c(-c2ccc(O)c(O)c2)oc2cc(O)cc(O)c12 [QUERCETIN]
8
O=C(O[C@@H]1Cc2c(O)cc(O)cc2O[C@@H]1c1cc(O)c(O)c(O)c1)c1cc(O)c(O)c(O)c1 [EPIGALOCATECHIN GALLATE]
5
Oc1ccc(/C=C/c2cc(O)cc(O)c2)cc1 [RESVERATROL]
11
O=c1c(-c2ccc(O)cc2)coc2cc(O)cc(O)c12 [GENISTEIN]
17

Then this molecule:
Request: Find the measured Cmax of COc1cc(/C=C/c2ccc(O)cc2)cc(OC)c1 [PTEROSTILBENE] and report it.
Result: 25

###

- Assay Overview: Plasma concentration in mouse at 10 mg/kg, iv at 120 mins by LC-MS/MS method
- Format: ADME, organism-based
Measured Endpoint: concentration at 2 h

Request: Find the measured concentration at 2 h of COc1cc(/C=C/c2ccc(O)cc2)cc(OC)c1 [PTEROSTILBENE] and report it.
Result: < 1000 nM

Hello, the source for this data is ChEMBL document CHEMBL4184147, in case you need it.
